TGT: T1, human FcRn/b2M (human, UniProt P61769 21-119, biotinylated)
T1 construct: bought recombinant biotinylated protein (ACRO FCM-H82W4 or Immunitrack ITF01); also called hFcRn; hFcRn/hb2M
TEST_SUMMARY: SPR pH 6.0
MEASURED_PROPERTY: pKd
Answer as the number alone; pKd is minus log10 of concentration in mol/L.

Consider the reported pKd for these binders:
| BINDER | RECORDED_RESULT |
| --- | --- |
| T026301197 (bispecific antibody, name in Kabat numbering, bispecific ISVD construct; also called T0263018B11(E1D, S52aQ)-35GS-ALB23002-A) DVQLVESGGGVVQPGGSLRLSCAASGFTFSSYAMYWVRQAPGKGLEWVSAISQGGGSTDYADSVKGRFTISRDNSKNTLYLQMNSLRPEDTALYYCAADTLYTSLTWYSYWGQGTLVTVSSGGGGSGGGGSGGGGSGGGGSGGGGSGGGGSGGGGSEVQLVESGGGVVQPGGSLRLSCAASGFTFRSFGMSWVRQAPGKGPEWVSSISGSGSDTLYADSVKGRFTISRDNSKNTLYLQMNSLRPEDTALYYCTIGGSLSRSSQGTLVTVSSA | 7.15 |
| T026301170 (bispecific antibody, bispecific ISVD construct; also called T0263018B11(E1D)-35GS-ALB23002-A) DVQLVESGGGVVQPGGSLRLSCAASGFTFSSYAMYWVRQAPGKGLEWVSAISSGGGSTDYADSVKGRFTISRDNSKNTLYLQMNSLRPEDTALYYCAADTLYTSLTWYSYWGQGTLVTVSSGGGGSGGGGSGGGGSGGGGSGGGGSGGGGSGGGGSEVQLVESGGGVVQPGGSLRLSCAASGFTFRSFGMSWVRQAPGKGPEWVSSISGSGSDTLYADSVKGRFTISRDNSKNTLYLQMNSLRPEDTALYYCTIGGSLSRSSQGTLVTVSSA | 7.92 |
| T026301192 (bispecific antibody, name in Kabat numbering, bispecific ISVD construct; also called T0263018B11(E1D, S100E)-35GS-ALB23002-A) DVQLVESGGGVVQPGGSLRLSCAASGFTFSSYAMYWVRQAPGKGLEWVSAISSGGGSTDYADSVKGRFTISRDNSKNTLYLQMNSLRPEDTALYYCAADTLYTELTWYSYWGQGTLVTVSSGGGGSGGGGSGGGGSGGGGSGGGGSGGGGSGGGGSEVQLVESGGGVVQPGGSLRLSCAASGFTFRSFGMSWVRQAPGKGPEWVSSISGSGSDTLYADSVKGRFTISRDNSKNTLYLQMNSLRPEDTALYYCTIGGSLSRSSQGTLVTVSSA | 6.60 |

Now, please, on to the next binder.
Query: Need pKd of T026301196 (bispecific antibody, name in Kabat numbering, bispecific ISVD construct; also called T0263018B11(E1D, G26T, S52aQ, W100cS)-35GS-ALB23002-A) DVQLVESGGGVVQPGGSLRLSCAASTFTFSSYAMYWVRQAPGKGLEWVSAISQGGGSTDYADSVKGRFTISRDNSKNTLYLQMNSLRPEDTALYYCAADTLYTSLTSYSYWGQGTLVTVSSGGGGSGGGGSGGGGSGGGGSGGGGSGGGGSGGGGSEVQLVESGGGVVQPGGSLRLSCAASGFTFRSFGMSWVRQAPGKGPEWVSSISGSGSDTLYADSVKGRFTISRDNSKNTLYLQMNSLRPEDTALYYCTIGGSLSRSSQGTLVTVSSA , thanks.
Result: 6.00
